The values you see were collected from paper PMC8021118.

- measuredOn: HLA-DRB1*04:01 (Homo sapiens, UniProt P01903+P01911, A100K/A169T/F76Y/I96L/K127E/L162R/M171V/N62H/P40V/Q125Y/R42H/S133A/S149N/S66Y/V115G/V209L/W38E)
- experimentalDetails: Peptide competition binding assay to HLA-DRB1*04:01
- testContext: Supplemental Table 1; citrullinated (X) vs arginine (R) versions; cutoff in the peptide binding assay 50 μM
Where no end group is shown, it is not given here.
measuredMetric: pEC50
Interpret pEC50 as the negative base-10 log of the concentration measured in mol/L.

The examples below pair each entry with its known result.
INSERT INTO results (substance, measuredmetric, reading) VALUES
  ('FDRYRLNYSLPTGQW [TNC-22RR]', 'pEC50', 6.00),
  ('PDGFRLSWTADEGVF [TNC-45R]', 'pEC50', 5.24);

Consider the substance VESFRITYVPITGGT [TNC-50R] . State its measured pEC50.
6.00

----------
- measuredOn: HLA-DRB1*04:01 (Homo sapiens, UniProt P01903+P01911, A100K/A169T/F76Y/I96L/K127E/L162R/M171V/N62H/P40V/Q125Y/R42H/S133A/S149N/S66Y/V115G/V209L/W38E)
- experimentalDetails: Peptide competition binding assay to HLA-DRB1*04:01
Where a SMILES comes first, the peptide text is derived from it. [ ]: non-standard residue; d: D form. Cit = NC(=O)NCCC[C@H](N)C(=O)O
# maps each entry to its EC50
Write down the numeric answer in µM and omit the unit.

INSERT INTO results (molecule, unitdescriptor, reading) VALUES
  ('CC(C)C[C@H](NC(=O)[C@H](CCC(=O)O)NC(=O)[C@H](Cc1ccc(O)cc1)NC(=O)[C@H](CCC(N)=O)NC(=O)CNC(=O)[C@@H](N)CCC(N)=O)C(=O)N[C@@H](CCCNC(N)=O)C(=O)N[C@H](C(=O)N[C@@H](CC(=O)O)C(=O)N[C@@H](CC(C)C)C(=O)N[C@@H](CCCNC(N)=O)C(=O)N[C@@H](CC(=O)O)C(=O)N[C@@H](Cc1c[nH]cn1)C(=O)NCC(=O)N[C@@H](CCC(=O)O)C(=O)O)C(C)C [TNC56] (H-QGQYEL[Cit]VDL[Cit]DHGE-OH)', 'µM', 9);

For the molecule CSCC[C@H](NC(=O)[C@@H](N)CO)C(=O)N[C@@H](C)C(=O)N[C@@H](Cc1ccc(O)cc1)C(=O)N[C@@H](Cc1c[nH]cn1)C(=O)N[C@@H](CC(N)=O)C(=O)NCC(=O)N[C@@H](CCCNC(N)=O)C(=O)N[C@@H](CO)C(=O)N[C@@H](Cc1ccccc1)C(=O)N[C@@H](CO)C(=O)N[C@H](C(=O)N[C@@H](Cc1ccccc1)C(=O)N[C@@H](CC(=O)O)C(=O)N[C@@H](CCCCN)C(=O)O)[C@@H](C)O [TNC59] (H-SMAYHNG[Cit]SFSTFDK-OH) , give its measured EC50 value.
25

----------
- measuredOn: HLA-DRB1*04:01 (Homo sapiens, UniProt P01903+P01911, A100K/A169T/F76Y/I96L/K127E/L162R/M171V/N62H/P40V/Q125Y/R42H/S133A/S149N/S66Y/V115G/V209L/W38E)
- experimentalDetails: Peptide competition binding assay to HLA-DRB1*04:01
Where a SMILES comes first, the peptide text is derived from it. [ ]: non-standard residue; d: D form. Cit = NC(=O)NCCC[C@H](N)C(=O)O
Attribute: pEC50
Keep in mind that pEC50 stands for -log10 of concentration in molar terms.

INSERT INTO assay_data (molecule, reading) VALUES
  ('CC(C)C[C@H](NC(=O)[C@H](CCCNC(N)=O)NC(=O)[C@H](Cc1ccc(O)cc1)NC(=O)[C@H](CCCNC(N)=O)NC(=O)[C@H](CC(=O)O)NC(=O)[C@@H](N)Cc1ccccc1)C(=O)N[C@@H](CC(N)=O)C(=O)N[C@@H](Cc1ccc(O)cc1)C(=O)N[C@@H](CO)C(=O)N[C@@H](CC(C)C)C(=O)N1CCC[C@H]1C(=O)N[C@H](C(=O)NCC(=O)N[C@@H](CCC(N)=O)C(=O)N[C@@H](Cc1c[nH]c2ccccc12)C(=O)O)[C@@H](C)O [TNC22] (H-FD[Cit]Y[Cit]LNYSLPTGQW-OH)', 6.15);

Give the reported value of pEC50 for this record: CC(C)C[C@H](NC(=O)[C@H](CCCNC(N)=O)NC(=O)[C@H](Cc1ccccc1)NC(=O)CNC(=O)[C@H](CC(=O)O)NC(=O)[C@@H]1CCCN1)C(=O)N[C@@H](CO)C(=O)N[C@@H](Cc1c[nH]c2ccccc12)C(=O)N[C@H](C(=O)N[C@@H](C)C(=O)N[C@@H](CC(=O)O)C(=O)N[C@@H](CCC(=O)O)C(=O)NCC(=O)N[C@H](C(=O)N[C@@H](Cc1ccccc1)C(=O)O)C(C)C)[C@@H](C)O [TNC45] (H-PDGF[Cit]LSWTADEGVF-OH)
4.77

----------
The reader will find reported Responders (% in RA) values listed item by item below.
- Test system: CD4+ T cells in PBMC from HLA-DRB1*04:01+ subjects
- experimentalDetails: In vitro expansion of peptide-specific CD4+ T cells from PBMC and HLA class II tetramer staining
- Format: cell-based, human
- testContext: RA subjects with positive in vitro response (>0.1% of CD4+ T cells tetramer+) of total tested; 10 μg/mL peptide, 14 days; n = 14, TNC44 and TNC59 n = 6
Where a SMILES comes first, the peptide text is derived from it. [ ]: non-standard residue; d: D form. Cit = NC(=O)NCCC[C@H](N)C(=O)O
Numbers only; they are read as %.

State its Responders (% in RA): CC(C)C[C@H](NC(=O)[C@H](CCCNC(N)=O)NC(=O)[C@H](Cc1ccccc1)NC(=O)CNC(=O)[C@H](CC(=O)O)NC(=O)[C@@H]1CCCN1)C(=O)N[C@@H](CO)C(=O)N[C@@H](Cc1c[nH]c2ccccc12)C(=O)N[C@H](C(=O)N[C@@H](C)C(=O)N[C@@H](CC(=O)O)C(=O)N[C@@H](CCC(=O)O)C(=O)NCC(=O)N[C@H](C(=O)N[C@@H](Cc1ccccc1)C(=O)O)C(C)C)[C@@H](C)O [TNC45] (H-PDGF[Cit]LSWTADEGVF-OH)
50

Give a short answer stating reported Responders (% in RA) for CC[C@H](C)[C@H](NC(=O)[C@H](CCC(=O)O)NC(=O)[C@H](C)NC(=O)[C@H](CCCNC(N)=O)NC(=O)[C@H](CC(C)C)NC(=O)[C@@H]1CCCN1C(=O)[C@H](CCCCN)NC(=O)[C@@H](N)[C@@H](C)O)C(=O)N[C@H](C(=O)N[C@H](C(=O)N[C@@H](CCC(=O)O)C(=O)N[C@@H](C)C(=O)N[C@@H](CCC(=O)O)C(=O)N1CCC[C@H]1C(=O)N[C@@H](CCC(=O)O)C(=O)O)[C@@H](C)O)C(C)C [TNC44] (H-TKPL[Cit]AEIVTEAEPE-OH) .
33

----------
- System: serum IgG antibodies of RA subjects
- experimentalDetails: ELISA for serum antibodies against peptide
- Type: binding, human
- testContext: Autoantibody Cohort 1: HLA-DRB1*04:01, CCP+ RA sera (n = 17), diluted 1:100; Cys-flanked ELISA peptides; cut-off 98th percentile of HC
Where no end group is shown, it is not given here. [ ]: non-standard residue; d: D form. Cit = NC(=O)NCCC[C@H](N)C(=O)O
Entries and their Percentage of subjects seropositive for antibodies to peptide values follow.
Return type: number; implicit unit %.

These recorded examples may help you get a feel for the data.
INSERT INTO assay_data (substance, reading) VALUES
  ('CEHSIQFAEMKL[Cit]PSNF[Cit]NLEG[Cit][Cit]KRC (cysteine pairing not given here) [cit-TNC5, previously published cit-TNC5 peptide, positive control in antibody ELISA, reference compound]', 47),
  ('CQGQYEL[Cit]VDL[Cit]DHGETAFC [cit-TNC56, Cys-flanked citrullinated TNC56 peptide used in ELISA]', 53),
  ('CVSDATPDGF[Cit]LSWTADEGC [cit-TNC45, Cys-flanked citrullinated TNC45 peptide used in ELISA]', 29),
  ('CTPLAKFD[Cit]Y[Cit]LNYSLPTGC [cit-TNC22, Cys-flanked citrullinated TNC22 peptide used in ELISA]', 35);

Consider the record given below.
Given the substance CEYEVSLIS[Cit][Cit]GDMSSNPAC [cit-TNC17, Cys-flanked citrullinated TNC17 peptide used for detection of antibodies by ELISA] , write its reported Percentage of subjects seropositive for antibodies to peptide.
100
